# Tested on: NCI-H292 lung cancer cells
# assay_details: FDA drug screening, complete media vs cholesterol-free media with simvastatin (TABLE 2)
# Assay type: cell-based, human
# condition_parameters: complete media minus cholesterol-free media + simvastatin; […]
Structures can show the parent of a compound that is named as a salt.
Listed next: entries and their corresponding Difference.
Just the number.

Looking for the measured Difference of NC(=O)OC[C@H](N)Cc1ccccc1 [Solriamfetol (hydrochloride)] , can you help?
0.14

Okay, and `COC(=O)c1cccc(CCN(C)CCC[C@@](C#N)(c2ccc(OC)c(OC)c2)C(C)C)c1` ?
0.06

What about this compound? `CC(C)N(CCNC(=O)CN1CCCC1=O)C(C)C`
0.11

And `CN(C)C(=O)c1ccc(S(=O)(=O)c2ccc(NC(=O)[C@@](C)(O)C(F)(F)F)c(Cl)c2)cc1` ?
0.27

Please do the same for Cl.Cl.OCCOCCN1CCN(C(c2ccccc2)c2ccccc2)CC1 [Decloxizine (dihydrochloride)] as well.
0.09

Let us now turn to COc1ccc2c3c1O[C@H]1C[C@@H](O)C=C[C@@]31CCN(C)C2 [Galanthamine (hydrobromide)]
0.02

Turning now to a further record.
Looking for the measured Difference of NCC[C@H](O)C(=O)N[C@@H]1C[C@H](N)[C@@H](O[C@H]2O[C@H](CN)[C@@H](O)[C@H](O)[C@H]2O)[C@H](O)[C@H]1O[C@H]1O[C@H](CO)[C@@H](O)[C@H](N)[C@H]1O [Amikacin (disulfate)] , can you help?
0.41
